# Tested on: ECAC2 mRNA in Caco-2 cells
# Format: cell-based
Below: a set of entries, each annotated with reported ECaC-2 mRNA induction activity in Caco-2 cells.
observation.type: ECaC-2 mRNA induction activity in Caco-2 cells (%)

{"compound": "CCC(CC)(c1ccc(/C=C/C2(O)CCCCC2)c(C)c1)c1ccc(OCCCCC(=O)O)c(C)c1", "subject.of.test": "ECAC2 mRNA in Caco-2 cells", "obs.value": 845}
{"compound": "CCc1cc(C(CC)(CC)c2ccc(C(=O)N[C@@H](C)C(=O)O)s2)ccc1OCC(C)(O)C(C)(C)C (single isomer, unassigned) [Compound D, reference compound]", "subject.of.test": "ECAC2 mRNA in Caco-2 cells", "obs.value": 14}
{"compound": "CCC(CC)(c1ccc(/C=C/C(O)(C(F)(F)F)C(F)(F)F)c(C)c1)c1ccc(OC[C@@H](O)CC(=O)O)c(C)c1", "subject.of.test": "ECAC2 mRNA in Caco-2 cells", "obs.value": 1227}
{"compound": "CCC(CC)(c1ccc(/C=C/C(O)(C(F)(F)F)C(F)(F)F)c(C)c1)c1ccc(OC[C@@H](O)CCCO)c(C)c1", "subject.of.test": "ECAC2 mRNA in Caco-2 cells", "obs.value": 4760}
{"compound": "CCC(CC)(c1ccc(CCC(O)(C(F)(F)F)C(F)(F)F)c(C)c1)c1ccc(OC[C@@H](O)CCC(=O)O)c(C)c1", "subject.of.test": "ECAC2 mRNA in Caco-2 cells", "obs.value": 161}
{"compound": "CCC(CC)(c1ccc(C#CC(O)(C(F)(F)F)C(F)(F)F)c(C)c1)c1ccc(OC[C@@H](O)CO)c(C)c1", "subject.of.test": "ECAC2 mRNA in Caco-2 cells", "obs.value": 355}
{"compound": "CCC(CC)(c1ccc(OCC(O)CO)c(C)c1)c1ccc(OCC(O)C(C)(C)C)c(C)c1 (stereo not drawn) [LG190178, reference compound]", "subject.of.test": "ECAC2 mRNA in Caco-2 cells", "obs.value": 100}
{"compound": "CCC(CC)(c1ccc(CCC(O)C(C)(C)C)c(C)c1)c1ccc(OCCCCC(=O)O)c(C)c1 (stereo not drawn)", "subject.of.test": "ECAC2 mRNA in Caco-2 cells", "obs.value": 518}
{"compound": "CCC(O)(/C=C/c1ccc(C(CC)(CC)c2ccc(OCCCCCN)c(C)c2)cc1C)CC", "subject.of.test": "ECAC2 mRNA in Caco-2 cells", "obs.value": 12}
{"compound": "CCC(CC)(c1ccc(/C=C/C(O)(C(F)(F)F)C(F)(F)F)c(C)c1)c1ccc(OC[C@@H]2CCCC(=O)O2)c(C)c1", "subject.of.test": "ECAC2 mRNA in Caco-2 cells", "obs.value": 662}
{"compound": "CCC(O)(/C=C/c1ccc(C(CC)(CC)c2ccc(OC[C@@H](O)CCC(=O)O)cc2)cc1C)CC", "subject.of.test": "ECAC2 mRNA in Caco-2 cells", "obs.value": 2017}
{"compound": "CCC(CC)(c1ccc(C#CCCCC(=O)O)c(C)c1)c1ccc(C#CC(O)(C(F)(F)F)C(F)(F)F)c(C)c1", "subject.of.test": "ECAC2 mRNA in Caco-2 cells", "obs.value": 292}
{"compound": "CCC(CC)(c1ccc(/C=C/C(O)(C(F)(F)F)C(F)(F)F)c(C)c1)c1ccc(OCCCCc2nnn[nH]2)c(C)c1", "subject.of.test": "ECAC2 mRNA in Caco-2 cells", "obs.value": 91}
{"compound": "CCC(O)(/C=C/c1ccc(C(CC)(CC)c2ccc(OCC(CO)CO)c(C)c2)cc1C)CC", "subject.of.test": "ECAC2 mRNA in Caco-2 cells", "obs.value": 542}
{"compound": "CCC(CC)(c1ccc(CCC(O)C(C)(C)C)c(C)c1)c1ccc(OC[C@H](O)CCC(=O)[O-])c(C)c1.[Na+] (stereo partly drawn) [Example 140]", "subject.of.test": "ECAC2 mRNA in Caco-2 cells", "obs.value": 53}
{"compound": "CCC(CC)(c1ccc(/C=C/C(O)(C(F)(F)F)C(F)(F)F)c(C)c1)c1ccc(OCCCCCC(=O)O)c(C)c1", "subject.of.test": "ECAC2 mRNA in Caco-2 cells", "obs.value": 226}
{"compound": "CCC(O)(/C=C/c1ccc(C(CC)(CC)c2ccc(OC[C@@H](O)CCC(=O)O)c(C)c2)cc1C)CC", "subject.of.test": "ECAC2 mRNA in Caco-2 cells", "obs.value": 36}
{"compound": "C=C1/C(=C\\C=C2/CCC[C@]3(C)[C@@H]([C@H](C)CCCC(C)(C)O)CC[C@@H]23)C[C@@H](O)C[C@@H]1O [1,25(OH)2D3, reference compound]", "subject.of.test": "ECAC2 mRNA in Caco-2 cells", "obs.value": 556}
{"compound": "CCCc1cc(C(CC)(CC)c2ccc(OC[C@@H](O)CCC(=O)O)c(C)c2)ccc1/C=C/C(O)(CC)CC", "subject.of.test": "ECAC2 mRNA in Caco-2 cells", "obs.value": 191}
{"compound": "CCC(O)(/C=C/c1ccc(C(CC)(CC)c2ccc(OCC(=O)NCCN)c(C)c2)cc1C)CC", "subject.of.test": "ECAC2 mRNA in Caco-2 cells", "obs.value": 135}
{"compound": "CCC(CC)(c1ccc(C#CC(O)(C(F)(F)F)C(F)(F)F)c(C)c1)c1ccc(OC[C@H](O)CCCO)c(C)c1", "subject.of.test": "ECAC2 mRNA in Caco-2 cells", "obs.value": 586}
{"compound": "CCC(CC)(c1ccc(/C=C/C(O)(C(F)(F)F)C(F)(F)F)c(C)c1)c1ccc(OC[C@H](O)CCC(=O)O)c(C)c1", "subject.of.test": "ECAC2 mRNA in Caco-2 cells", "obs.value": 987}
{"compound": "CCC(CC)(c1ccc(/C=C/C2(O)CCCC2)c(C)c1)c1ccc(OCCCCC(=O)O)c(C)c1", "subject.of.test": "ECAC2 mRNA in Caco-2 cells", "obs.value": 289}
{"compound": "CCC(CC)(c1ccc(CCC(O)C(C)(C)C)c(C)c1)c1ccc(OC[C@H](O)CCC(=O)[O-])c(C)c1.[Na+] (stereo partly drawn) [Example 141]", "subject.of.test": "ECAC2 mRNA in Caco-2 cells", "obs.value": 31}
{"compound": "CCC(CC)(c1ccc(/C=C/C(O)(C(F)(F)F)C(F)(F)F)c(C)c1)c1ccc(OC[C@H]2CCCC(=O)O2)c(C)c1", "subject.of.test": "ECAC2 mRNA in Caco-2 cells", "obs.value": 918}
{"compound": "CCC(CC)(c1ccc(C#CC(O)(C(F)(F)F)C(F)(F)F)c(C)c1)c1ccc(OCC(CO)CO)c(C)c1", "subject.of.test": "ECAC2 mRNA in Caco-2 cells", "obs.value": 534}
{"compound": "CCC(CC)(c1ccc(/C=C/C2(O)CCCCC2)c(C)c1)c1ccc(OC[C@@H](O)CCC(=O)O)c(C)c1", "subject.of.test": "ECAC2 mRNA in Caco-2 cells", "obs.value": 639}

----------
# System: ECAC2 mRNA in Caco-2 cells
# Assay type: cell-based
observation.type: ECaC-2 mRNA induction activity in Caco-2 cells

{"smiles.record": "CCC(O)(/C=C/c1ccc(C(CC)(CC)c2cc(C)c(OC[C@@H]3CCC(=O)O3)c(C)c2)cc1C)CC", "subject.of.test": "ECAC2 mRNA in Caco-2 cells", "obs.value": "86%"}
{"smiles.record": "CCC(CC)(c1ccc(/C=C/C(O)(C(F)(F)F)C(F)(F)F)c(C)c1)c1ccc(OCC(CO)CO)c(C)c1", "subject.of.test": "ECAC2 mRNA in Caco-2 cells", "obs.value": "6659%"}
{"smiles.record": "CCC(CC)(c1ccc(C#CC(O)(C(F)(F)F)C(F)(F)F)c(C)c1)c1ccc(OC[C@@H](O)CCC(=O)O)c(C)c1", "subject.of.test": "ECAC2 mRNA in Caco-2 cells", "obs.value": "49%"}
{"smiles.record": "CCC(O)(/C=C/c1ccc(C(CC)(CC)c2ccc(OC[C@H]3CCCC(=O)O3)c(C)c2)cc1C)CC", "subject.of.test": "ECAC2 mRNA in Caco-2 cells", "obs.value": "22%"}

----------
# Tested on: ECAC2 mRNA in Caco-2 cells
# Format: cell-based
observation.type: ECaC-2 mRNA induction activity in Caco-2 cells (%)

{"smiles.record": "CCC(O)(/C=C/c1ccc(C(CC)(CC)c2ccc(OC[C@H]3CCC(=O)O3)c(C)c2)cc1C)CC", "subject.of.test": "ECAC2 mRNA in Caco-2 cells", "censoring.operator": "=", "obs.value": 96}
{"smiles.record": "CCC(CC)(c1ccc(/C=C/C(O)(C(F)(F)F)C(F)(F)F)c(C)c1)c1ccc(OC[C@@H](O)CO)c(C)c1", "subject.of.test": "ECAC2 mRNA in Caco-2 cells", "censoring.operator": ">", "obs.value": 10000}
{"smiles.record": "CCC(O)(/C=C/c1ccc(C(CC)(CC)c2cc(C)c(OC[C@@H](O)CCC(=O)O)c(C)c2)cc1C)CC", "subject.of.test": "ECAC2 mRNA in Caco-2 cells", "censoring.operator": "=", "obs.value": 323}
{"smiles.record": "CCC(CC)(c1ccc(C#CC(O)(C(F)(F)F)C(F)(F)F)c(C)c1)c1ccc(OC[C@H](O)CCCC(=O)O)c(C)c1", "subject.of.test": "ECAC2 mRNA in Caco-2 cells", "censoring.operator": "=", "obs.value": 235}
